# System: Klebsiella pneumoniae
# assay-remarks: Antimicrobial activity against Klebsiella pneumoniae NCTC 13439 by broth microdilution method
# Format: functional
recorded-metric: MIC (µg/mL)
// units = µg/mL; emit number, no label

C[C@@H](O)[C@H]1C(=O)N2C(C(=O)O)=C(SCCNC=N)C[C@H]12 [IMIPENEM ANHYDROUS] = 64

Now look at this one.
Form: molecule = O=C(O)c1cn(C2CC2)c2cc(N3CCNCC3)c(F)cc2c1=O ; MIC = 32

* * *

# System: Klebsiella pneumoniae
# assay-remarks: Antimicrobial activity against Klebsiella pneumoniae NCTC 13438 by broth microdilution method
# Format: functional
Positions of bridges follow the written chain, without caps; N, C: chain ends. Non-standard residues stand in square brackets, D forms with d. Residues, ends and D or L forms follow the SMILES beside them. *: point of attachment. X1 = CC[C@H](C)CCCCC(=O)*; Dab = NCC[C@H](N)C(=O)O
recorded-metric: MIC (µg/mL)
// units = µg/mL; emit number, no label

CC[C@H](C)CCCCC(=O)N[C@@H](CCN)C(=O)N[C@H](C(=O)N[C@@H](CCN)C(=O)N[C@H]1CCNC(=O)[C@H]([C@@H](C)O)NC(=O)[C@H](CCN)NC(=O)[C@H](CCN)NC(=O)[C@H](CC(C)C)NC(=O)[C@@H](Cc2ccccc2)NC(=O)[C@H](CCN)NC1=O)[C@@H](C)O (X1-[Dab]T[Dab][Dab][Dab][dF]L[Dab][Dab]T; lactam 4-C) = 0.5

Now look at this one.
Form: compound = N=C(N)NCC/C=C(\NC(=O)[C@H](CCCCN)NC(=O)[C@H](Cc1cnc[nH]1)NC(=O)[C@@H]1CCCN1C(=O)[C@@H](CCCN)NC(=O)CNC(=O)[C@@H](NC(=O)[C@@H](NC(=O)[C@@H](N)CCCCN)[C@@H](O)CN)[C@@H](O)CN)C(=O)N[C@@H](CCCCN)C(=O)NCCCCN ; MIC = 4

* * *

# Tested on: Klebsiella pneumoniae
# assay-remarks: Antimicrobial activity against Klebsiella pneumoniae NCTC 13442 by broth microdilution method
# Assay type: functional
Positions of bridges follow the written chain, without caps; N, C: chain ends. Non-standard residues stand in square brackets, D forms with d. Residues, ends and D or L forms follow the SMILES beside them. *: point of attachment. X1 = CC[C@H](C)CCCCC(=O)*; Dab = NCC[C@H](N)C(=O)O
recorded-metric: MIC

Use these answered entries as a reference point.
C[C@@H](O)[C@H]1C(=O)N2C(C(=O)O)=C(SCCNC=N)C[C@H]12 [IMIPENEM ANHYDROUS] = > 64 mg/L
N=C(N)NCC/C=C(\NC(=O)[C@H](CCCCN)NC(=O)[C@H](Cc1cnc[nH]1)NC(=O)[C@@H]1CCCN1C(=O)[C@@H](CCCN)NC(=O)CNC(=O)[C@@H](NC(=O)[C@@H](NC(=O)[C@@H](N)CCCCN)[C@@H](O)CN)[C@@H](O)CN)C(=O)N[C@@H](CCCCN)C(=O)NCCCCN = 8 mg/L
O=C(O)c1cn(C2CC2)c2cc(N3CCNCC3)c(F)cc2c1=O = 8 mg/L
CC[C@H](C)CCCCC(=O)N[C@@H](CCN)C(=O)N[C@H](C(=O)N[C@@H](CCN)C(=O)N[C@H]1CCNC(=O)[C@H]([C@@H](C)O)NC(=O)[C@H](CCN)NC(=O)[C@H](CCN)NC(=O)[C@H](CC(C)C)NC(=O)[C@@H](Cc2ccccc2)NC(=O)[C@H](CCN)NC1=O)[C@@H](C)O (X1-[Dab]T[Dab][Dab][Dab][dF]L[Dab][Dab]T; lactam 4-C) = 0.5 mg/L
C[C@H](NC(=O)[C@@H](NC(=O)[C@@H](N)CCCCN)[C@@H](O)CN)C(=O)NCC(=O)N[C@H](CCCN)C(=O)N1CCC[C@H]1C(=O)N[C@@H](Cc1cnc[nH]1)C(=O)N[C@@H](CCCCN)C(=O)N/C(=C\CCNC(=N)N)C(=O)O = 4 mg/L

Now look at this one.
Form: compound = CO/N=C(\C(=O)N[C@@H]1C(=O)N2C(C(=O)O)=C(CSc3nc(=O)c(O)nn3C)CS[C@H]12)c1csc(N)n1 ; MIC = 8 mg/L
